experiment: Protein binding test (equilibrium dialysis, unbound fraction in serum); type: in vitro ADME; details: 37° C.
parameter: fraction unbound at 24 h, 2 μg/mL

compound | meas.value
Cc1ccc(Cn2c(=O)n(C[C@H](C)C(=O)O)c(=O)[nH]/c2=N\c2ccc(Oc3ccc(F)cn3)cc2)cc1 [Compound I-040] | 0.035
C[C@@H](Cn1c(=O)[nH]/c(=N\c2ccc(Oc3cccc(F)n3)cc2)n(Cc2ccc(F)cc2F)c1=O)C(=O)O [Compound I-029] | 0.017
O=c1[nH]/c(=N\c2ccc(Oc3ccc(F)cn3)cc2)n(Cc2ccc(Cl)cc2)c(=O)n1[C@H]1C[C@H](C(=O)O)C1 [Compound I-019] | 0.01
C[C@@H](Cn1c(=O)[nH]/c(=N\c2ccc(Oc3cnccn3)cc2)n(Cc2ccc(Cl)cc2)c1=O)C(=O)O [Compound R-019] | 0.018
Cc1ccc(Cn2c(=O)n(C[C@H](C)C(=O)O)c(=O)[nH]/c2=N\c2ccc(Oc3ncccc3F)cc2)cc1 [Compound I-056] | 0.018
Cc1ccc(Cn2c(=O)n(C[C@H](C)C(=O)O)c(=O)[nH]/c2=N\c2ccc(Oc3cccc(F)n3)cc2)cc1 [Compound I-057] | 0.017

###

assay: Metabolism stability test, pooled human hepatic microsomes; format: in vitro ADME; settings: remaining rate, human liver microsomes, 30 minutes, compound concentration 0.5 μmol/L
parameter: Metabolism Stability (%)

chemical.structure | parameter | meas.value
O=c1[nH]/c(=N\c2ccc(Oc3ncccc3F)cc2)n(Cc2ccc(Cl)cc2)c(=O)n1[C@H]1C[C@H](C(=O)O)C1 | Metabolism Stability | 97
C[C@@H](C(=O)O)[C@H](C)n1c(=O)[nH]/c(=N\c2ccc(Oc3ccc(F)cn3)c(F)c2)n(Cc2ccc(Cl)cc2)c1=O | Metabolism Stability | 99
C[C@@H](Cn1c(=O)[nH]/c(=N\c2ccc(Oc3cc(F)ccn3)cc2)n(Cc2ccc(Cl)cc2)c1=O)C(=O)O | Metabolism Stability | 103
O=c1[nH]/c(=N\c2ccc(Oc3ccc(F)cn3)cc2)n(Cc2ccc(Cl)cc2)c(=O)n1[C@H]1C[C@H](C(=O)O)C1 | Metabolism Stability | 96
Cc1ccc(Cn2c(=O)n(C[C@H](C)C(=O)O)c(=O)[nH]/c2=N\c2ccc(Oc3cccc(F)n3)cc2)cc1 | Metabolism Stability | 91
C[C@@H](Cn1c(=O)[nH]/c(=N\c2ccc(Oc3cccc(F)n3)cc2)n(Cc2ccc(F)cc2F)c1=O)C(=O)O | Metabolism Stability | 100

###

assay: Pharmacokinetic test (BA, CLtot); assay type: in vivo; settings: rat, plasma; SD rats, oral administration 1 mg/kg; read-out: AUC (po)

chemical.structure | units.label | AUC
Cc1ccc(Cn2c(=O)n(C[C@H](C)C(=O)O)c(=O)[nH]/c2=N\c2ccc(Oc3ccc(F)cn3)cc2)cc1 | ng·h/mL | 410
Cc1ccc(Cn2c(=O)n(C[C@H](C)C(=O)O)c(=O)[nH]/c2=N\c2ccc(Oc3cccc(F)n3)cc2)cc1 | ng·h/mL | 487
O=C(O)C1(Cn2c(=O)[nH]/c(=N\c3ccc(Oc4cccc(F)n4)cc3)n(Cc3ccc(Cl)cc3)c2=O)CC1 | ng·h/mL | 6110
C[C@@H](Cn1c(=O)[nH]/c(=N\c2ccc(Oc3ccccn3)cc2)n(Cc2ccc(Cl)cc2)c1=O)C(=O)O | ng·h/mL | 2460
C[C@@H](Cn1c(=O)[nH]/c(=N\c2ccc(Oc3cccc(Cl)n3)cc2)n(Cc2ccc(Cl)cc2)c1=O)C(=O)O | ng·h/mL | 4890
Cc1ccc(Oc2ccc(/N=c3\[nH]c(=O)n(CC(C)(C)C(=O)O)c(=O)n3Cc3ccc(Cl)cc3)cc2)nc1 | ng·h/mL | 2030
